Below, each entry is listed with its recorded IC50.
- TARGET OR SYSTEM: His tagged PTPN2 (TC45) protein (Homo sapiens, UniProt P17706)
- Sequence (P17706 with tags, fused parts or gaps isoform P17706-2): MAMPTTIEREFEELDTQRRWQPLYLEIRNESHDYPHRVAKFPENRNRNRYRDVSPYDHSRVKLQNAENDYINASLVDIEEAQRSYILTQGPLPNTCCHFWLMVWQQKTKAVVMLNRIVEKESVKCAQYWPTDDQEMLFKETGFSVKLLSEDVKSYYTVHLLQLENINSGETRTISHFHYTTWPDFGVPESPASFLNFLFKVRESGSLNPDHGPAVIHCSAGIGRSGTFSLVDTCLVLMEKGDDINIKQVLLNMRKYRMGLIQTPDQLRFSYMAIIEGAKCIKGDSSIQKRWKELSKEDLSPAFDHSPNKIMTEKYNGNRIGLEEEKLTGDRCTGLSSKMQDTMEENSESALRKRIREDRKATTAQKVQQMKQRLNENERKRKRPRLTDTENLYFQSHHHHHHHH

What the record says about O=C1CN(c2c(O)cc3c(c2F)C[C@H](NCC2COC2)CC3)S(=O)(=O)N1 : IC50 is 10 to 100 nM

What the record says about C[C@H]1Cc2c(cc(O)c(N3CC(=O)NS3(=O)=O)c2F)CN1 : IC50 is 10 to 100 nM

What the record says about CC(C)(CN[C@@H]1CCc2cc(O)c(N3CC(=O)NS3(=O)=O)c(F)c2C1)CN1CCCC1 : IC50 is 10 to 100 nM

What the record says about CCCCN[C@@H]1CCc2cc(O)c(N3CC(=O)NS3(=O)=O)c(F)c2C1 : IC50 is 1 to 10 nM

What the record says about Cc1cc(CN[C@@H]2CCc3cc(O)c(N4CC(=O)NS4(=O)=O)c(F)c3C2)no1 : IC50 is 10 to 100 nM

---
What the record says about CC(C)CCN[C@H]1Cc2c(cc(O)c(N3CC(=O)NS3(=O)=O)c2F)C[C@H]1O : IC50 is 1 to 10 nM

What the record says about O=C1CN(c2c(O)cc3c(c2F)CN(c2ccccn2)CC3)S(=O)(=O)N1 : IC50 is 10 to 100 nM

What the record says about CC1=C(CCN2CCc3cc(O)c(N4CC(=O)NS4(=O)=O)c(F)c3C2)C(C)(C)CCC1 : IC50 is < 1 nM

What the record says about CCCCNCC1CCc2cc(O)c(N3CC(=O)NS3(=O)=O)c(F)c2C1 (centres unmarked) : IC50 is 10 to 100 nM

What the record says about O=C1CN(c2c(O)cc3c(c2F)C[C@H](NCc2cccnc2)CC3)S(=O)(=O)N1 : IC50 is 10 to 100 nM

What the record says about O=C1CN(c2c(O)cc3c(c2F)CN(C(=O)NCCc2ccccc2)CC3)S(=O)(=O)N1 : IC50 is 10 to 100 nM

What the record says about O=C1CN(c2c(O)cc3c(c2F)C[C@H](NCCC2CCOC2)CC3)S(=O)(=O)N1 (some centres unmarked) : IC50 is < 1 nM

What the record says about CC(C)OCCCN1CCc2cc(O)c(N3CC(=O)NS3(=O)=O)c(F)c2C1 : IC50 is 10 to 100 nM

What the record says about COC(CN1CCc2cc(O)c(N3CC(=O)NS3(=O)=O)c(F)c2C1)C1CCCC1 (centres unmarked) : IC50 is 10 to 100 nM

What the record says about O=C1CN(c2c(O)cc3c(c2F)C[C@H](NCC2C4CCCC42)CO3)S(=O)(=O)N1 (mixture of isomers) : IC50 is 10 to 100 nM

What the record says about O=C1CN(c2c(O)cc3c(c2F)CN(CCCCCC(F)(F)F)CC3)S(=O)(=O)N1 : IC50 is 1 to 10 nM

What the record says about O=C1CN(c2c(O)cc3c(c2F)CN(CC2CC(F)(F)C2)CC3)S(=O)(=O)N1 : IC50 is 1 to 10 nM

What the record says about CC(C)CCCN1CCc2cc(O)c(N3CC(=O)NS3(=O)=O)c(F)c2C1=O : IC50 is > 100 nM

What the record says about Cc1n[nH]c(C)c1CCN1CCc2cc(O)c(N3CC(=O)NS3(=O)=O)c(F)c2C1 : IC50 is 1 to 10 nM

What the record says about Cc1nn(C)c(C)c1CN1CC(N2CCc3cc(O)c(N4CC(=O)NS4(=O)=O)c(F)c3C2)C1 : IC50 is > 100 nM

What the record says about Cc1nn(CC(F)F)c(C)c1CCN1CCc2cc(O)c(N3CC(=O)NS3(=O)=O)c(F)c2C1 : IC50 is 1 to 10 nM

What the record says about Cc1c(CCN2CCc3cc(O)c(N4CC(=O)NS4(=O)=O)c(F)c3C2)cnn1C : IC50 is 1 to 10 nM

What the record says about O=C1CN(c2c(O)cc3c(c2F)CN(C(=O)NCC2CCOCC2)CC3)S(=O)(=O)N1 : IC50 is 10 to 100 nM
